Source of measurements: ChEMBL document CHEMBL3808338

Assayed System: Epidermal growth factor receptor (Homo sapiens, UniProt P00533)
Sequence (P00533 whole entry): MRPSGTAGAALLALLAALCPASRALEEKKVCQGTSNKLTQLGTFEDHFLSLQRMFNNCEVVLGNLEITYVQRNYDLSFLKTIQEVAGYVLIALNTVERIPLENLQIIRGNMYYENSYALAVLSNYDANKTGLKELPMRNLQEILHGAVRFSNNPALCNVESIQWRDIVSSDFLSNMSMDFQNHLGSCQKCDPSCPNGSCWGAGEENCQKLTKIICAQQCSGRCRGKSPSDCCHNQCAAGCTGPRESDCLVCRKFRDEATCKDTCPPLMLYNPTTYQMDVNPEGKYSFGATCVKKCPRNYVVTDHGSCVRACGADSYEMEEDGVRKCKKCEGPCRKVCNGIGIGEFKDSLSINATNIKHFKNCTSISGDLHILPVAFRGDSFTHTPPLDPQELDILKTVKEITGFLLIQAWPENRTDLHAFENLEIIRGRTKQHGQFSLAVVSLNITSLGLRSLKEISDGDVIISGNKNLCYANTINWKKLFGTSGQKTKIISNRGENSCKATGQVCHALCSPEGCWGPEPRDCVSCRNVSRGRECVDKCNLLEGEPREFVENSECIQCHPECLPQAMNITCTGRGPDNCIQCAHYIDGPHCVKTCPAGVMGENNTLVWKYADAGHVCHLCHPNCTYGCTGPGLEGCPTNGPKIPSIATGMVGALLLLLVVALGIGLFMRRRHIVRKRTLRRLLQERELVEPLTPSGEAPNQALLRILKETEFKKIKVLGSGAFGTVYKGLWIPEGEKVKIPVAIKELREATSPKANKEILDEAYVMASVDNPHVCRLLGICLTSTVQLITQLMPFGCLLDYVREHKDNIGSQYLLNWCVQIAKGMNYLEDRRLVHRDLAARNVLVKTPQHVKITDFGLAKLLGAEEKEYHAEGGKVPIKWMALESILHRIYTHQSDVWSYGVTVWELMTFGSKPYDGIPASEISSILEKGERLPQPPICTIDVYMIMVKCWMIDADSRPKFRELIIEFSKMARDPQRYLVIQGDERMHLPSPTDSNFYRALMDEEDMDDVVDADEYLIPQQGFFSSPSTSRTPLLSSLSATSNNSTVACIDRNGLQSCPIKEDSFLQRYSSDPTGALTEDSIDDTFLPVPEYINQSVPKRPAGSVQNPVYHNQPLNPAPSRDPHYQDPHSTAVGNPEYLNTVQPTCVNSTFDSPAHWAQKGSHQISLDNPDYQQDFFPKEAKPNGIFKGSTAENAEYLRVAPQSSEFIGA
Experiment Notes: Inhibition of EGFR-TK in human A431 cell lysate assessed as reduction in EGF stimulated kinase activity after 60 mins using biotinylated peptide substrate by ELISA
IC50 values by entry
Answer in µM, number only, no unit symbol.

C[S+]([O-])CCCCN=C=S (configuration not stated) : 9

Consider now this further molecule.
Req: Form field: IC50 recorded for S=C=Nc1ccc2ncnc(Nc3cccc(Br)c3)c2c1 with Epidermal growth factor receptor (Homo sapiens, UniProt P00533) (enter value)
Resp: 0.88

* * *

System: HaCaT
Experiment Notes: Antiproliferative activity against human HaCaT cells assessed as cell growth inhibition after 72 hrs by MTT assay
Format: functional, cell-based
Listing of entries alongside the reported IC50.
Write the value in µM as a bare number.

The cases that follow already have their IC50 on record.
O=C(CCN=C=S)Nc1ccc2ncnc(Nc3cccc(Br)c3)c2c1 : 18.9
O=C(CCCCCCN=C=S)Nc1ccc2ncnc(Nc3cccc(Br)c3)c2c1 : 17.3
S=C=Nc1ccc2ncnc(Nc3cccc(Br)c3)c2c1 : 2.62
O=C(CCCCN=C=S)Nc1ccc2ncnc(Nc3cccc(Br)c3)c2c1 : 18.2
O=C(CCCN=C=S)Nc1ccc2ncnc(Nc3cccc(Br)c3)c2c1 : 16.3
O=C(CCCCCN=C=S)Nc1ccc2ncnc(Nc3cccc(Br)c3)c2c1 : 16.5

Read the next record carefully.
Req: Name the recorded IC50 for Nc1ccc2ncnc(Nc3cccc(Br)c3)c2c1 .
Resp: 14.3
